experiment-summary: in vivo
test-context: female, FVB (wildtype), mouse, in vivo, Docetaxel plasma concentration, mean
Description: The following elacridar nanoparticle suspension was used in these experiments: 5% elacridar w/w plus 1% w/w TPGS, where 2 ml of NP formulation was diluted with 8 ml of 20% TPGS to give a final elacridar concentration of 10 mg/ml. The drug was mixed, sonicated and administered within 1 h. The dose used was 50 mg/kg (10 μl/g). The drug was mixed by vortex and administered within 1.5 h. The dose used was 33 mg/kg (10 μl/g). The drug was administered within 1 h of preparation. […]
readout-label: concentration at 60 min (ng/mL)
Reply numerically in ng/mL, unit not repeated.

Quick check: concentration at 60 min of CC(=O)O[C@@]12CO[C@@H]1C[C@H](O)[C@@]1(C)C(=O)[C@H](O)C3=C(C)[C@@H](OC(=O)[C@H](O)[C@@H](NC(=O)OC(C)(C)C)c4ccccc4)C[C@@](O)([C@@H](OC(=O)c4ccccc4)[C@H]21)C3(C)C [docetaxel] ?
2570

---

experiment-summary: Plasma concentrations in the brain penetration studies
test-context: female, FVB (wildtype), mouse, in vivo, iv, 5 mg/kg, Loperamide plasma AUC(0-1 h), individual animals, loperamide with elacridar
readout-label: AUC(0-t) (ng·h/mL)
Reply numerically in ng·h/mL, unit not repeated.

Quick check: AUC(0-t) of CN(C)C(=O)C(CCN1CCC(O)(c2ccc(Cl)cc2)CC1)(c1ccccc1)c1ccccc1 [loperamide] ?
704

---

experiment-summary: Plasma concentrations in the brain penetration studies
test-context: female, FVB (wildtype), mouse, in vivo, Loperamide plasma concentration, mean, loperamide with elacridar; 60 min
readout-label: concentration at 60 min

Quick check: concentration at 60 min of CN(C)C(=O)C(CCN1CCC(O)(c2ccc(Cl)cc2)CC1)(c1ccccc1)c1ccccc1 [loperamide] ?
140 ng/mL

---

experiment-summary: Plasma concentrations in the brain penetration studies
test-context: female, FVB (wildtype), mouse, in vivo, 5 mg/kg, Loperamide plasma concentration, mean, loperamide alone; 30 min
readout-label: concentration at 30 min (ng/mL)
Reply numerically in ng/mL, unit not repeated.

Quick check: concentration at 30 min of CN(C)C(=O)C(CCN1CCC(O)(c2ccc(Cl)cc2)CC1)(c1ccccc1)c1ccccc1 [loperamide] ?
221

---

experiment-summary: Plasma concentrations in the brain penetration studies
test-context: female, FVB (wildtype), mouse, in vivo, 5 mg/kg, Loperamide plasma concentration, mean, loperamide alone; 60 min
readout-label: concentration at 60 min (ng/mL)
Reply numerically in ng/mL, unit not repeated.

Quick check: concentration at 60 min of CN(C)C(=O)C(CCN1CCC(O)(c2ccc(Cl)cc2)CC1)(c1ccccc1)c1ccccc1 [loperamide] ?
81.4

---

experiment-summary: in vivo
test-context: female, FVB (wildtype), mouse, in vivo, Docetaxel plasma concentration, mean
Protocol: The following elacridar nanoparticle suspension was used in these experiments: 5% elacridar w/w plus 1% w/w TPGS, where 2 ml of NP formulation was diluted with 8 ml of 20% TPGS to give a final elacridar concentration of 10 mg/ml. The drug was mixed, sonicated and administered within 1 h. The dose used was 50 mg/kg (10 μl/g). The drug was mixed by vortex and administered within 1.5 h. The dose used was 33 mg/kg (10 μl/g). The drug was administered within 1 h of preparation. […]
readout-label: concentration at 5 min (µg/mL)
Reply numerically in µg/mL, unit not repeated.

Quick check: concentration at 5 min of CC(=O)O[C@@]12CO[C@@H]1C[C@H](O)[C@@]1(C)C(=O)[C@H](O)C3=C(C)[C@@H](OC(=O)[C@H](O)[C@@H](NC(=O)OC(C)(C)C)c4ccccc4)C[C@@](O)([C@@H](OC(=O)c4ccccc4)[C@H]21)C3(C)C ?
206
